Molecular target: 5-hydroxytryptamine receptor 1E (Homo sapiens)
Assay: 5-HT1E receptor antagonists, primary screen, cell-based, HTS (AID 571);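 also: signal is the 460 over 535 nm emission ratio of beta-lactamase substrate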
Conditions: CHO 5-HT1E Ga15 NFAT-bla reporter, FRET, antagonist; at 6 µM
In all, about 65,000 compounds went through this assay and about 640 (0.98%) were called active.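 The calls were made as follows: active = inhibition above a set limit, the mean inhibition across every tested compound plus 3 SD (cut at about 29% in these data); inactive = the rest.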 This is one part of a sample in which actives are shown more often than they occur.
Select the matching outcome among active, inactive

1. CC(=O)NC(C)(C)C1CC=C(C)/C(=N\O)C1 (stereo unspecified) | inactive
2. Cn1nc(-c2ccc(N3CCOCC3)c(NC(=O)c3ccccc3)c2)c2ccccc2c1=O | active
3. COc1ccc(CCNC(=O)c2ccc3c(c2)NC(=O)C(N2CCOCC2)S3)cc1OC (stereo unspecified) | inactive
4. Cc1cccc(Cn2c(SCCO)nc3c2c(=O)n(C)c(=O)n3C)c1 | inactive
5. O=C(Nc1cc(C(F)(F)F)ccc1Cl)c1cc(C2CC2)on1 | inactive

Please indicate how the test categorized CCN(CC)C(=O)N1CCN(C(=O)c2ccc(C)cn2)CC1 .
inactive

// same read-out, input: Cc1cc(NCc2ccco2)n2c(nc3ccccc32)c1C#N
inactive

// same read-out, input: Cc1ccc(C(c2nnnn2C(C)(C)C)N2CCc3ccccc3C2)cc1 (stereo unspecified)
inactive

// same read-out, input: CCC(C)NC(=O)N[C@@H](CCSC)C(=O)O (stereo partly specified)
inactive

// same read-out, input: CSc1sc(C)cc1C1C(C#N)=C(N)N(c2cccnc2)C2=C1C(=O)CCC2 (stereo unspecified)
inactive

// same read-out, input: CCn1c2c(c3ccc(OC)cc31)CCCC2=O
inactive
